Form: system (Niemann-Pick type C2 (NPC2)), quantity (Ki), values below.
Answers are plain numbers, in µM.

[
  {
    "Compound": "c1ccc2[nH]ccc2c1 [indole]",
    "Study System": "Niemann-Pick type C2 (NPC2)",
    "Ki [µM]": 10.3
  }
]

Q: Quick one: give measured Ki for Cc1c[nH]c2ccccc12 [3-methylindole]
Ans: 15.4

* * *

# Study System: Niemann-Pick type C2 (NPC2)
Value Type: pKd
Numbers only, as −log10 of the molar value.

Q: Look up and report measured pKd for this entry: "c1ccc(Nc2cccc3ccccc23)cc1"
Ans: 5.50

* * *

# Study System: Odor Binding Protein-like (OBPL)
Value Type: Ki

[
  {
    "Molecule": "Cc1c[nH]c2ccccc12 [3-methylindole]",
    "Study System": "Odor Binding Protein-like (OBPL)",
    "Ki": "4.19 µM"
  }
]

Q: Annotate the molecule c1ccc2[nH]ccc2c1 [indole] with its measured Ki.
Ans: 2.26 µM
